- PROCEDURE_DETAILS: Selectivity index, ratio of IC50 for cytotoxicity against HUVEC cells to IC50 for antiplasmodial activity against chloroquine-sensitive Plasmodium falciparum 3D7
- Type: toxicity, cell-based
- EXPERIMENTAL_PARAMETERS: human, read-out: Ratio IC50
The reader will find reported selectivity ratio values listed item by item below.
ASSAY_METRIC: selectivity ratio

- COMPOUND: "O=C(Nc1ccc(OC(=O)c2cc(O)c(O)c(O)c2)cc1)c1cc(O)c(O)c(O)c1"
  RELATION: ">"
  MEASURED_VALUE: 13
- COMPOUND: "O=C(OCCCOC(=O)c1cc(O)c(O)c(O)c1)c1cc(O)c(O)c(O)c1"
  RELATION: ">"
  MEASURED_VALUE: 23
- COMPOUND: "O=C(Nc1cccc(OC(=O)c2cc(O)c(O)c(O)c2)c1)c1cc(O)c(O)c(O)c1"
  RELATION: "="
  MEASURED_VALUE: 6
- COMPOUND: "O=C(OCCCOC(=O)c1cc(O)c(O)c(O)c1)c1ccc(O)c(O)c1"
  RELATION: "="
  MEASURED_VALUE: 41
- COMPOUND: "O=C(OCCCOC(=O)c1cc(O)c(OCCOCc2ccccc2)c(O)c1)c1cc(O)c(OCCOCc2ccccc2)c(O)c1"
  RELATION: "="
  MEASURED_VALUE: 5
- COMPOUND: "O=C(OCCCOC(=O)c1cc(O)c(O)c(O)c1)c1cc(O)cc(O)c1"
  RELATION: ">"
  MEASURED_VALUE: 21
- COMPOUND: "O=C(OCCCOC(=O)c1cc(O)c(OCc2ccccc2)c(O)c1)c1cc(O)c(OCc2ccccc2)c(O)c1"
  RELATION: "="
  MEASURED_VALUE: 8
- COMPOUND: "O=C(OCCCCOC(=O)c1cc(O)c(O)c(O)c1)c1cc(O)c(O)c(O)c1"
  RELATION: ">"
  MEASURED_VALUE: 35
- COMPOUND: "O=C(OCCCOC(=O)c1cc(O)c(OCCO)c(O)c1)c1cc(O)c(O)c(O)c1"
  RELATION: ">"
  MEASURED_VALUE: 14
- COMPOUND: "O=C(OCCOC(=O)c1cc(O)c(O)c(O)c1)c1cc(O)c(O)c(O)c1"
  RELATION: "="
  MEASURED_VALUE: 19
- COMPOUND: "O=c1oc2c(O)c(O)cc3c(=O)oc4c(O)c(O)cc1c4c23 [ELLAGIC ACID]"
  RELATION: ">"
  MEASURED_VALUE: 59
- COMPOUND: "O=C(NCCCOC(=O)c1cc(O)c(O)c(O)c1)c1cc(O)c(O)c(O)c1"
  RELATION: "="
  MEASURED_VALUE: 11
- COMPOUND: "O=C(OCCCOC(=O)c1cc(O)c(O)c(O)c1)c1ccccc1"
  RELATION: "="
  MEASURED_VALUE: 3
- COMPOUND: "O=C(OCCCOC(=O)c1cc(O)c(OCc2ccc3ccccc3c2)c(O)c1)c1cc(O)c(OCc2ccccc2)c(O)c1"
  RELATION: "="
  MEASURED_VALUE: 5
- COMPOUND: "O=C(OCCCOC(=O)c1cc(O)c(OCc2ccc3ccccc3c2)c(O)c1)c1cc(O)c(OCc2ccc3ccccc3c2)c(O)c1"
  RELATION: "="
  MEASURED_VALUE: 2.4
- COMPOUND: "O=C(O)c1cc(O)c(O)c(O)c1 [GALLIC ACID]"
  RELATION: ">"
  MEASURED_VALUE: 4
- COMPOUND: "O=C(OCCCOC(=O)c1ccc(O)c(O)c1)c1ccc(O)c(O)c1"
  RELATION: ">"
  MEASURED_VALUE: 42
- COMPOUND: "O=C(NCCCNC(=O)c1cc(O)c(O)c(O)c1)c1cc(O)c(O)c(O)c1"
  RELATION: "="
  MEASURED_VALUE: 28

###

- PROCEDURE_DETAILS: Toxicity in zebrafish embryos assessed as brain misshape at 10 to 100 ug/ml measured for 3 days
- Assay type: tissue-based, Danio rerio
- EXPERIMENTAL_PARAMETERS: in vivo, 72 h, dose 10-100 µg/ml, time 3 day
ASSAY_METRIC: Activity

- CPD_SMILES: "O=C(OCCCOC(=O)c1cc(O)c(OCc2ccccc2)c(O)c1)c1cc(O)c(OCc2ccccc2)c(O)c1"
  MEASURED_VALUE: "Non-Toxic"
- CPD_SMILES: "O=C(OCCOC(=O)c1cc(O)c(O)c(O)c1)c1cc(O)c(O)c(O)c1"
  MEASURED_VALUE: "Non-Toxic"
- CPD_SMILES: "O=C(NCCCNC(=O)c1cc(O)c(O)c(O)c1)c1cc(O)c(O)c(O)c1"
  MEASURED_VALUE: "Non-Toxic"
- CPD_SMILES: "O=C(OCCCOC(=O)c1cc(O)c(O)c(O)c1)c1cc(O)c(O)c(O)c1"
  MEASURED_VALUE: "Non-Toxic"
- CPD_SMILES: "O=C(OCCCCOC(=O)c1cc(O)c(O)c(O)c1)c1cc(O)c(O)c(O)c1"
  MEASURED_VALUE: "Non-Toxic"
- CPD_SMILES: "O=C(NCCCOC(=O)c1cc(O)c(O)c(O)c1)c1cc(O)c(O)c(O)c1"
  MEASURED_VALUE: "Non-Toxic"

###

The reader will find reported log10(solubility thermodynamic at 72 h) values listed item by item below.
- PROCEDURE_DETAILS: Aqueous solubility of compound assessed as Cmax incubated for 3 days by UV spectrophotometer based shake-flask method
- Format: physicochemical
- EXPERIMENTAL_PARAMETERS: water (aqueous); time 3 day; read-out: Cmax
ASSAY_METRIC: log10(solubility thermodynamic at 72 h) (log10 of the value in µM)

- CPD_SMILES: "O=C(Nc1ccc(OC(=O)c2cc(O)c(O)c(O)c2)cc1)c1cc(O)c(O)c(O)c1"
  log10(solubility thermodynamic at 72 h): 1.82
- CPD_SMILES: "O=C(OCCOC(=O)c1cc(O)c(O)c(O)c1)c1cc(O)c(O)c(O)c1"
  log10(solubility thermodynamic at 72 h): 2.63
- CPD_SMILES: "O=C(Nc1cccc(OC(=O)c2cc(O)c(O)c(O)c2)c1)c1cc(O)c(O)c(O)c1"
  log10(solubility thermodynamic at 72 h): 2.48
- CPD_SMILES: "O=C(OCCCOC(=O)c1ccccc1)c1ccccc1"
  log10(solubility thermodynamic at 72 h): 0.85
- CPD_SMILES: "O=C(OCCCOC(=O)c1cc(O)c(OCc2ccccc2)c(O)c1)c1cc(O)c(OCc2ccccc2)c(O)c1"
  log10(solubility thermodynamic at 72 h): 1.41
- CPD_SMILES: "O=C(OCCCOC(=O)c1cc(O)c(O)c(O)c1)c1cc(O)cc(O)c1"
  log10(solubility thermodynamic at 72 h): 3.08

###

- PROCEDURE_DETAILS: Cytotoxicity against HUVEC cells assessed as inhibition of cell growth incubated for 48 hrs by fluorescence based assay
- Format: toxicity
- EXPERIMENTAL_PARAMETERS: human
ASSAY_METRIC: IC50 at 48 h (µM)

- COMPOUND: "O=C(OCCCOC(=O)c1cc(O)c(OCc2ccc3ccccc3c2)c(O)c1)c1cc(O)c(OCc2ccccc2)c(O)c1"
  RELATION: "="
  MEASURED_VALUE: 6.9
- COMPOUND: "O=C(OCCCOC(=O)c1cc(O)c(O)c(O)c1)c1ccc(O)c(O)c1"
  RELATION: "="
  MEASURED_VALUE: 84
- COMPOUND: "O=C(O)c1cc(O)c(O)c(O)c1 [GALLIC ACID]"
  RELATION: ">"
  MEASURED_VALUE: 294
- COMPOUND: "O=C(OCCCOC(=O)c1cc(O)c(OCc2ccc3ccccc3c2)c(O)c1)c1cc(O)c(OCc2ccc3ccccc3c2)c(O)c1"
  RELATION: "="
  MEASURED_VALUE: 9.7
- COMPOUND: "O=C(OCCCOC(=O)c1cc(O)c(O)c(O)c1)c1ccccc1"
  RELATION: "="
  MEASURED_VALUE: 78
- COMPOUND: "O=C(NCCCNC(=O)c1cc(O)c(O)c(O)c1)c1cc(O)c(O)c(O)c1"
  RELATION: "="
  MEASURED_VALUE: 130
- COMPOUND: "O=c1oc2c(O)c(O)cc3c(=O)oc4c(O)c(O)cc1c4c23 [ELLAGIC ACID]"
  RELATION: ">"
  MEASURED_VALUE: 165
- COMPOUND: "O=C(NCCCOC(=O)c1cc(O)c(O)c(O)c1)c1cc(O)c(O)c(O)c1"
  RELATION: "="
  MEASURED_VALUE: 59
- COMPOUND: "O=C(OCCCCOC(=O)c1cc(O)c(O)c(O)c1)c1cc(O)c(O)c(O)c1"
  RELATION: ">"
  MEASURED_VALUE: 127
- COMPOUND: "O=C(OCCCOC(=O)c1ccc(O)c(O)c1)c1ccc(O)c(O)c1"
  RELATION: ">"
  MEASURED_VALUE: 144
- COMPOUND: "O=C(OCCOC(=O)c1cc(O)c(O)c(O)c1)c1cc(O)c(O)c(O)c1"
  RELATION: "="
  MEASURED_VALUE: 69
- COMPOUND: "O=C(OCCCOC(=O)c1cc(O)c(OCc2ccccc2)c(O)c1)c1cc(O)c(OCc2ccccc2)c(O)c1"
  RELATION: "="
  MEASURED_VALUE: 14
- COMPOUND: "O=C(OCCCOC(=O)c1cc(O)c(O)c(O)c1)c1cc(O)c(O)c(O)c1"
  RELATION: ">"
  MEASURED_VALUE: 132
- COMPOUND: "O=C(OCCCOC(=O)c1cc(O)c(OCCOCc2ccccc2)c(O)c1)c1cc(O)c(OCCOCc2ccccc2)c(O)c1"
  RELATION: "="
  MEASURED_VALUE: 15
- COMPOUND: "O=C(OCCCOC(=O)c1cc(O)c(OCCO)c(O)c1)c1cc(O)c(O)c(O)c1"
  RELATION: ">"
  MEASURED_VALUE: 118
- COMPOUND: "O=C(Nc1ccc(OC(=O)c2cc(O)c(O)c(O)c2)cc1)c1cc(O)c(O)c(O)c1"
  RELATION: ">"
  MEASURED_VALUE: 121
- COMPOUND: "O=C(Nc1cccc(OC(=O)c2cc(O)c(O)c(O)c2)c1)c1cc(O)c(O)c(O)c1"
  RELATION: "="
  MEASURED_VALUE: 54
